tested on: K4 kissing-loop RNA reporter; test: apparent KD of K4 kissing-loop reporter; higher = weaker reporter binding; conditions: Eterna round: R107; input ligand: tryptophan 2.4 mM
Recorded measurements of apparent KD of K4 kissing-loop reporter, one per entry
Could you give me the number in nM? Just the number is fine.

Record excerpt, results attached:
INSERT INTO assay_data (input_sequence, measurement_label, unit_info, readout_value) VALUES
  ('UUUAUAUUGUCGGCCGCCACUGGAUCAAUAUUUGUAUGAUCUAGUUCAAAGUGAUGUUUUGAGUCCAGGACCGGGACAUUUGUUA [JR_ExcTryptoB_Sub005]', 'apparent KD of K4 kissing-loop reporter', 'nM', 917),
  ('UGCCGCAAGGCGAGCGCUCCCACUCCGGAAGGAGCGCCCGGAAGGGCAGGUAGGUCGCCGGAGUGAUGUUCCGGUGGAGGGCUCG [#2 Exclusion - Arginine A Attempt #26 (Inspired by Omei)]', 'apparent KD of K4 kissing-loop reporter', 'nM', 297),
  ('UGUGAACAAAAGUAGAGUGGACCACUAUAGCGAGGACCGGUACGGCCGCCACUCGUACAUGAAUUCAGUGAUGUUGAAAAGAGCU [whbob_EX_Tryp_A_t13]', 'apparent KD of K4 kissing-loop reporter', 'nM', 209);

Incoming: Can you look up the measured apparent KD of K4 kissing-loop reporter of UCGCCAAAGUCGGCCGCCACUCCGGGCCCUAUAAAUGGGCGCAGUGAUGUUGCGGCUAGGCCUCUGAGGACCGGGACUUUGUAAA [Tiesgeza] for me?
Outgoing: 133

Incoming: Find the recorded apparent KD of K4 kissing-loop reporter belonging to CCAGGACGAUGAGGAUGAUGAAUUACUGAAGGAGCGCAUAUGGUUGCAGGUAGGUCGCGGUGAACAAGUAUAGUGAUGUUAUACC [SSArgA.U] and report it.
Outgoing: 348

Incoming: Entry under review: CCUAUCUCAUACGAUACCAGUCAAUGAUCUUUGAUCAAUGCCAUCACCGAGUGAUGUUCGGACCCUUGGCAGCGUAUGAGAUAGG [whbob_Ex_Theo_B_sa103] . Reported apparent KD of K4 kissing-loop reporter?
Outgoing: 247

====

system: MS2 coat protein; test: apparent KD of MS2 coat protein; designed switch direction (-1 OFF switch, 1 ON switch): -1; higher = weaker reporter binding; conditions: Eterna round: R95; input ligand: none
We use 30 nM as the dividing line for apparent KD of MS2 coat protein: on or above the line is condition met, below is condition not met.

INSERT INTO assay_data (input_sequence, measured_on, answer_label) VALUES
  ('GGGUGUCCAGUGAGGAUAUCCAGCGCUCAGGCGCAGGAGAAGGCACAUGAGGAUCACCCAUGUAGCUGAAGAAA [Geenra] (puzzle: Brourd''s mod of Exclusion 4)', 'MS2 coat protein', 'condition met'),
  ('GUAGAGUAAGGAUAUGUUGAAUAGGAUAGAAUGGUUAGAAAACAGAAGGUACAUGAGGAUCACCCAUGUAAUGU [Excluse me!!!! 11 - Jieux - Exclusion 4] (puzzle: Exclusion 4)', 'MS2 coat protein', 'condition not met'),
  ('AAAUAAUAGAUAAAAUAAUACAUGAGGAUCACCCAUGUGGGAUGCUGAGGGUGAUACAAGCUUUUUGCUCGUCUUAU (puzzle: Sensor v3, turn-off variant 1)', 'MS2 coat protein', 'condition met');

Would you kindly look at the next entry?
Incoming: Identify whether the reported apparent KD of MS2 coat protein of the following sequence is 30 nM or greater: GCGAAAGCAAGCAAGUGAAACAUGAGGAUCACCCAUGUCCUCAUUUGCUCGUCUUGUAAGCUAUGCGAAAGCAUAGC [Sensor 3, v1 - 5] (puzzle: Sensor v3, turn-off variant 1)
Outgoing: condition not met

====

// reported apparent KD of K4 kissing-loop reporter for each item listed
system: K4 kissing-loop RNA reporter; assay: apparent KD of K4 kissing-loop reporter; higher = weaker reporter binding; details: Eterna round: R107; input ligand: tryptophan 2.4 mM;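 also: bound reporter read as fluorescence of individual clusters on recovered sequencing chips by microscopy, with normalized cluster intensities fitted with a binding model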
Reply with just the number (in nM).

INSERT INTO assay_data (input_sequence, readout_value) VALUES
  ('UUUAAAUAUAGUGAUGUUAUAUAACAAUGACGAGGACCGGUACGGCCGCCACUCGAGAGAGAUAAUGGUCUUACAAAUGUAAGUC [AstrosSSTryA#8]', 399),
  ('UUGCCUUUGAGCGAUACCAGCAGCGUCGGCCUUAGAUUGGGAGGCAUGGCAAGUGAUGUUUGCCCUUGGCAGCGCGUAUAGUACA [theeternabot_exclusion_KL_Theo_B_7]', 219),
  ('GGAGCCGAUAGUGAUACCAGCCAGUGAUGUUGGCGAAGUCUCAUUUUCGCUCUCGGUAAGGGCCCUUGGCAGCACUUACUCGGAA [Arledied]', 104),
  ('GGAUCUUCCAGUGAUGUUGGUUAAUAUAUCAAGGAUAUGACGAAAGUCAGAAGGUGAAAGACUGGACAAAGUCCAGUCGGAUCCA [KL-SSFMN-A19]', 430),
  ('AAGCAGUCACUCGAAUCCAUCGAAGAUGGGCGAGGACCGGUACGGCCGCCACUCGGAGUGAUGUUCCAAAGACUGCAAAAUAAAA', 136);

Incoming: I'd like to know its apparent KD of K4 kissing-loop reporter. The sequence in question is GGAUGGUAGGCGGCCGCCACUAAAACUGAACACAUACAAGCCAGUGAUGUUGGUAUGAUGGAGUAUAGGACCGGGCCUAGAUAGA [Exclusion - Tryptophan B (Freestyle 4)]
Outgoing: 421

Incoming: I would be grateful if you could share the reported apparent KD of K4 kissing-loop reporter for GCGCGUCAUGUCAGCGGAGACACUGUCGAUACCAGCGCCGCAAGGCGCCCUUGGCAGCGACGCGCUGGAGUGAUGUUCCAGCGUG [#2 Exclusion - Theophylline A Attempt #15 (HarryS)] .
Outgoing: 159

Incoming: Any idea what its apparent KD of K4 kissing-loop reporter is? The sequence is UGAUACCAGACGGCCGCCACUCCCGCAGGUCAAAGACCUGCGAAGAAGGUUUUUUAGUGAUGUUGGAGGACCGGGUCUGGUAUCU [FiskerMod 20 - Jieux - Exclusion - Tryptophan B]
Outgoing: 689

Incoming: State the recorded apparent KD of K4 kissing-loop reporter for this entry: "AGUCCACUCUAAAGAGUGGACCUAAGGGAUACCAGUGAUGUUGGUCACCCUUGGCAGCCCGCUGUCAUCGAUAAAGAUGGCAGAA"
Outgoing: 120

Incoming: Which apparent KD of K4 kissing-loop reporter value is on record for AGAGAUAAGGCGGCCGCCACUAAGAUGAAACUAACGGUCAAGUGAUGUUUGCGGUUACAGUUCAGUAGGACCGGGCCGAGUAAAU [theeternabot_sameState_KL_Trp_B_47] ?
Outgoing: 357

Incoming: Would you kindly share the measured apparent KD of K4 kissing-loop reporter for UCCUAGGUUCGUCGGCGAAAGCCCUGCGAAGGAGCGUGCGAAAGUACAGGUAGGUCGCGCAGUGAUGUUGCACCUAGGUAAUAAA [#07 K4 Arginine A Exclusion] ?
Outgoing: 375

====

system: MS2 coat protein; test: apparent KD of MS2 coat protein; designed switch direction (-1 OFF switch, 1 ON switch): -1; higher = weaker reporter binding; conditions: input ligand: FMN 200 uM
measurement.label: apparent KD of MS2 coat protein (µM)
Write down the numeric answer in µM and omit the unit.

INSERT INTO measurements (input_sequence, unit_info, readout_value) VALUES
  ('AUAAAUCAUGUAGGAUAUGCGUGGCGAAGCUAUGCAGAAGGACAUGAGGAUCACCCAUGUGCUUGCGUCCGCGUACGGAUGCAA [Mat - Exclusion NG 1 - Mod of JL - D69] (Eterna round: R96, puzzle: Exclusion NG 1)', 'µM', 0.0652);

Incoming: Record lookup: for MS2 coat protein, what apparent KD of MS2 coat protein belongs to AGCCAAGCAGGAUAUACCCGGGAUAACAUGAGGAUCACCCAUGUGACCGAUUGAUGUCCUGUAGAAGGGCUUGGGA [Mod of ViennaUCT 21 - Jieux - Exclusion 5] (Eterna round: R97, puzzle: Exclusion 5) ?
Outgoing: 0.0781

Incoming: Provide value of apparent KD of MS2 coat protein for this record tested with MS2 coat protein: GGCGGACAUGAGGAUCACCCAUGUCAGGAUAUGGUGCGAUCGUCGAUAGACGAUAGCACCAGAAGGGACACGCC [Mat - Exclusion 1 - Eli Mod - D1] (Eterna round: R97, puzzle: Exclusion 1)
Outgoing: 0.0222

Incoming: // map UUGUUAUAUGUAGGAUAUGCGUAUUGUUAUUAUGCAGAAGGACAUGAGGAUCACCCAUGUAUAUUAUUAUUAUAUAUUAUAUAU [Title] (Eterna round: R96, puzzle: Exclusion NG 1) to recorded apparent KD of MS2 coat protein (system: MS2 coat protein)
Outgoing: 0.0878
